Reference source: patent US5922324A

experiment: Confirmation of insolubilized substance C (HPLC of supernatant after 101-fold dilution)
Assay type: physicochemical
conditionInfo: dilute aqueous ethanol, organic solvent or mixture; 25° C.; pH about 5.0 extract, 10 w/w % d.s.b. in 50 v/v % aqueous ethanol, diluted with water by about 100 folds; read-out: Concentration in which substance C dissolves in dilute aqueous ethanol solution
measurementLabel: solubility kinetic (µg/mL)

> print(dat)
                                 compound    measurementlabel  assayresult
1  CC(C)=CCc1cc(C=CC(=O)O)cc(CC=C(C)C)c1O  solubility kinetic         0.03
